System: SF-295 CNS
Test: NCI-60 one-dose screen, 48 h (100 = growth as untreated, 0 = no growth, -100 = all killed)
Conditions: 10 µM unless noted
About 83,000 compounds went through this panel and 20% of them were active in at least one assay; those are over-represented in the sample as a whole. Activity calls are given as the source filed them. Rule for the calls: active = growth percent below 10; inactive = the rest.
reported-endpoint: growth

Solved entries (count: 4):
[
  {
    "molecule": "COc1ccc(CN2C(=O)OC(C)(COC(C)=O)C2=O)cc1 (stereo unspecified)",
    "growth": "99.7% (inactive)"
  },
  {
    "molecule": "NC(=O)c1ccccc1OCC(=O)Nc1ccc(Cl)c(Cl)c1",
    "growth": "98.9% (inactive)"
  },
  {
    "molecule": "Clc1ccc(-c2nc(C(Cl)Cl)nc3cc(-c4ccccc4)nn23)cc1",
    "growth": "14.3% (inactive)"
  },
  {
    "molecule": "O=C(OCc1ccc2c(Cl)cc(Cl)c(O)c2n1)N1CCN(C(=O)c2cc3ccccc3[nH]2)CC1",
    "growth": "16.1% (inactive)"
  }
]

Continue with the next molecule.
Exercise: So what's the measured growth for this one? "Cn1c(C#N)ccc1-c1ccc(F)c(NC(=O)c2ccc(F)cc2)c1"
Solution: 68.8% (inactive)
